- measurement-target: His tagged full-length PTPN1 protein (Homo sapiens, UniProt P18031)
- Sequence (P18031 with tags, fused parts or gaps): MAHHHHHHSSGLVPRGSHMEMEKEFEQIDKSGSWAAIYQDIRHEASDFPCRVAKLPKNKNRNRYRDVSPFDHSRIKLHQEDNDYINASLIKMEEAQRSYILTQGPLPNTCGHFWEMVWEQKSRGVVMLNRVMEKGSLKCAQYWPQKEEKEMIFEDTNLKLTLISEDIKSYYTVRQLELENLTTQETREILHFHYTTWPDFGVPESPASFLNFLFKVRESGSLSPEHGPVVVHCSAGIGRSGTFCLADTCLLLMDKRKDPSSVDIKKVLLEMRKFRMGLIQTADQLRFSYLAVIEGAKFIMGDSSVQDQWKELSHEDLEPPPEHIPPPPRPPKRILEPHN
pIC50: −log10 of the molar value.
measured-metric: pIC50

| molecule | pIC50 |
| --- | --- |
| O=C1CN(c2c(O)cc3c(c2F)C[C@H](NCCC2CC2)CC3)S(=O)(=O)N1 (single isomer, unassigned) | 8.00 to 9.00 |

Record pIC50 per entry; entries follow.
1. O=C1CN(c2c(O)cc3c(c2F)CC(NCC(F)(F)c2ccccc2)CC3)S(=O)(=O)N1 (stereo not shown)
2. CCCCNC1CCc2cc(O)c(N3CC(=O)NS3(=O)=O)c(F)c2C1 (stereo not shown)
3. CC(C)CCNC[C@H]1Cc2cc(O)c(N3CC(=O)NS3(=O)=O)c(F)c2C1 (single isomer, unassigned)

1. 7.00 to 8.00
2. 7.00 to 8.00
3. 7.00 to 8.00

All figures here come from patent US10851073B2.
